So I've got a bunch of binders here, and I need their Reporter gene-assay [pM] values.
Test System: human IL-6 (mature hIL-6) (human, UniProt P05231 30-212)
Sequence (P05231 30-212): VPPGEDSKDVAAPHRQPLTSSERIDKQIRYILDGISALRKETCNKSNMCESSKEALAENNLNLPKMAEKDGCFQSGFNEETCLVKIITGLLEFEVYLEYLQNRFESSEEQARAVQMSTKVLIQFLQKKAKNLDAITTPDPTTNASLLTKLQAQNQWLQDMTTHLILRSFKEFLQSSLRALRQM
Assay Details: cell-based or functional assay
Reply numerically in pM, unit not repeated.

Exercise: What value of Reporter gene-assay [pM] has been reported for the following binder? Polypeptide_5 (VHH, VHH_2.5 with C-terminal His tag extension E1; also called [VHH_2.5]-E1) VHH: QLQLVESGGGLVQPGGSLRLSCAASGFTFSNYWMYWVRQAPGKGLEWVSGINTGGSTPDYADSVKGRFTISRDNAKNTLYLQMNSLRPEDTAVYYCAADTPRVFRLDHYSPLGQGTQVTVSS
Solution: 23.2

Exercise: What value of Reporter gene-assay [pM] has been reported for the following binder? Polypeptide_13 (VHH, VHH_2.13 with C-terminal His tag extension E1; also called [VHH_2.13]-E1) VHH: EVQLVESGGGLVQAGGPLRLSCTVSGRTFSTYAMGWFRQAPGKEREFVADINWNSDNIWYADSVKGRFTISRDNAKNVMYLQMNSLKPEDTAVYYCAADSYGVGGGKEEYYDSWGQGTQVTVSS
Solution: 80.9

Exercise: What value of Reporter gene-assay [pM] has been reported for the following binder? Polypeptide_14 (VHH, VHH_2.14 with C-terminal His tag extension E1; also called [VHH_2.14]-E1) VHH: QLQLVESGGGSVQVGDSLRLSCTFSGRSFSSYAMGWFRQAPGKEREFVADIGENADNTWYAHSVKGRFTISRDNAKNTVYLQMNSLKPEDTAVYYCAADSYGVGGGAQGYYDSWGQGTQVTVSS
Solution: 72.9
